Measured IC50 on NDM-1 (Klebsiella pneumoniae) follows.

Before answering, review these 3 worked examples.
C[C@H](CS)C(=O)N1c2ccccc2C(C)(C)[C@H]1C(=O)NCC(=O)O    40 µM
CCC1(CC)c2ccccc2N(C(=O)[C@H](C)CS)[C@@H]1C(N)=O    8.4 µM
CCC1(CC)c2ccccc2N(C(=O)[C@H](C)CS)[C@H]1C(N)=O    3.5 µM

Batch lookup, IC50 per entry.
1. C[C@H](CS)C(=O)N1c2ccccc2C(C)(C)[C@@H]1C(=O)NCC(=O)O
2. C[C@H](CS)C(=O)N1c2ccccc2C2(CCCCC2)[C@H]1C(N)=O
3. C[C@H](CS)C(=O)N1c2ccccc2C(C)(C)[C@H]1C(N)=O
4. C[C@H](CS)C(=O)N1c2ccccc2C2(CCCCC2)[C@@H]1C(N)=O
5. CCC1(CC)c2ccccc2N(C(=O)[C@H](C)CS)[C@H]1C(=O)NCC(=O)O
6. CCC1(CC)c2ccccc2N(C(=O)[C@H](C)CS)[C@@H]1C(=O)NCC(=O)O

1. 8 µM
2. 7.4 µM
3. 17.9 µM
4. 4.8 µM
5. 10 µM
6. 41 µM

Just so you know, measured IC50 for C[C@H](CS)C(=O)N1c2ccccc2C(C)(C)[C@@H]1C(N)=O came out at 4.1 µM

###

# assay_target: IMP-7 (Pseudomonas aeruginosa, UniProt Q93AU3)
# Sequence (Q93AU3 entry or part of it): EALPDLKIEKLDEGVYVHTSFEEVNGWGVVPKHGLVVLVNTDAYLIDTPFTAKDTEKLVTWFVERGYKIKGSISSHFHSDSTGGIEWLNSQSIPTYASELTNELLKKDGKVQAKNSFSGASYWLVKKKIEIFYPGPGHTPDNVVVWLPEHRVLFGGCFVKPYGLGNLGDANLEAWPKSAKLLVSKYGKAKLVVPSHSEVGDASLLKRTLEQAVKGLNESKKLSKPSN
# test_details: Kinetic fluorescence-based in vitro assay with fluorocillin substrate (IC50)
# test_settings: 30 min preincubation
Would you mind telling me the reported pIC50 of each entry?
Give bare numbers, as −log10 of the molar value.

C[C@H](CS)C(=O)N1c2ccccc2C(C)(C)[C@@H]1C(=O)NCC(=O)O [7b]    5.07
CCC1(CC)c2ccccc2N(C(=O)[C@H](C)CS)[C@H]1C(N)=O [6d]    5.48

// moving on: another record for pIC50
Just so you know, measured pIC50 for C[C@H](CS)C(=O)N1c2ccccc2C(C)(C)[C@@H]1C(N)=O [6b] came out at 5.74

###

# assay_target: NDM-1 (Klebsiella pneumoniae, UniProt C7C422)
# Construct: made in house; host or cells: E. coli
# Sequence (C7C422 29-270 limits assumed): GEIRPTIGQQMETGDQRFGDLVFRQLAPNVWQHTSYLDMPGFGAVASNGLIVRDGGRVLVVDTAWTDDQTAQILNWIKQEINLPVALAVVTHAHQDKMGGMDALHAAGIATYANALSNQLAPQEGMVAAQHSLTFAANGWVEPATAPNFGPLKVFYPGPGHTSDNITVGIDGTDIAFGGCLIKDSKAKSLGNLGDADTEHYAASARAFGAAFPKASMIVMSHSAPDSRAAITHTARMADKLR
# test_details: Spectrophotometric direct competition assay, imipenem hydrolysis (reporter substrate)
# Format: biochemical
# test_settings: read-out: percentage of inhibition NDM-1
Would you mind telling me the reported inhibition at 50 µM of each entry?
Give bare numbers, in %.

C[C@H](CS)C(=O)N1c2ccccc2C2(CCCCC2)[C@@H]1C(N)=O [6f]    83

// moving on: another record for inhibition at 50 µM
Just so you know, measured inhibition at 50 µM for C[C@H](CS)C(=O)N1c2ccccc2C(C)(C)[C@H]1C(=O)NCC(=O)O [7a] came out at 28

###

Would you mind telling me the reported inhibition at 50 µM of each entry?
# assay_target: IMP-1 (Serratia marcescens, UniProt P52699)
# Construct: made in house; host or cells: E. coli
# Sequence (P52699 19-246, looked up, species assumed): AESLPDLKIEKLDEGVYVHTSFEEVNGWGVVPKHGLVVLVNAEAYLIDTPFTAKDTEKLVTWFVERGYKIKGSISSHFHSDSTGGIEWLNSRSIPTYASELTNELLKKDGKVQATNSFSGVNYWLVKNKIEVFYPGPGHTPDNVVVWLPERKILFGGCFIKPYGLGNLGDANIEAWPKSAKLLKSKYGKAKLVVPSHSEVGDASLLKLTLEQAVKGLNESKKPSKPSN
# test_details: biochemical
# test_settings: read-out: percentage of inhibition IMP-1
Give bare numbers, in %.

Before answering, review these 2 worked examples.
CCC1(CC)c2ccccc2N(C(=O)[C@H](C)CS)[C@H]1C(=O)NCC(=O)O    17
CCC1(CC)c2ccccc2N(C(=O)[C@H](C)CS)[C@@H]1C(N)=O    66

Batch lookup, inhibition at 50 µM per entry.
1. C[C@H](CS)C(=O)N1c2ccccc2C2(CCCCC2)[C@@H]1C(N)=O
2. CCC1(CC)c2ccccc2N(C(=O)[C@H](C)CS)[C@H]1C(N)=O
3. CCC1(CC)c2ccccc2N(C(=O)[C@H](C)CS)[C@@H]1C(=O)NCC(=O)O
4. C[C@H](CS)C(=O)N1c2ccccc2C(C)(C)[C@@H]1C(=O)NCC(=O)O

1. 38
2. 51
3. 27
4. 13

Just so you know, measured inhibition at 50 µM for C[C@H](CS)C(=O)N1c2ccccc2C2(CCCCC2)[C@H]1C(N)=O came out at 68
